molecular target: BB7 (RNA-dependent RNA polymerase hepatitis C virus protein sequence derived from HCV replicon) (Hepatitis C virus genotype 1b)
Sequence (Q9WMX2 2420-3010): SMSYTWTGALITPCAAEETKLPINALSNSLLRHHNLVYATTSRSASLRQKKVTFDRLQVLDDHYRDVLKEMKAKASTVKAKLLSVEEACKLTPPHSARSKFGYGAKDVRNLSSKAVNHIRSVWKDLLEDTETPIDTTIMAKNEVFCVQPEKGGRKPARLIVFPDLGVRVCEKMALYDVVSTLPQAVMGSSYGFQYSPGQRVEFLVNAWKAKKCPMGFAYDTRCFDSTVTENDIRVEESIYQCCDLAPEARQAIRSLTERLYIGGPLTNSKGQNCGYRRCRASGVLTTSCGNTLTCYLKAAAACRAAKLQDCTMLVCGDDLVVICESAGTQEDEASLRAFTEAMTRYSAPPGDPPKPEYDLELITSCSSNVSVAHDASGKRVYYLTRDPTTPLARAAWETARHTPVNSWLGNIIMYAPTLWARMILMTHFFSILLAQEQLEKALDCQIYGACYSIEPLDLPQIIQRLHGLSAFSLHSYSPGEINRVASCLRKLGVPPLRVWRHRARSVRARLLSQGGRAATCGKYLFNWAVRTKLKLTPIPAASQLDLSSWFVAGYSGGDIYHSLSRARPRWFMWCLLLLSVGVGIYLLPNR
compounds and their reported IC50
Answer with a number only, understood to be in µM.

CCCC1(CC(=O)O)OCCc2c1[nH]c1c(C)c(OC(C)C)cc(C#N)c21 (stereo not shown); 0.22
Cc1ccc([N+](=O)[O-])c2c3c([nH]c12)C(CC(=O)O)(C1CCC1)OCC3 (stereo not shown); 0.9
O=C(O)CC1(C2CCC2)OCCc2c1[nH]c1c(Cl)ccc(Cl)c21 (stereo not shown); 0.7
O=C(O)CC1(C2CCCC2)OCCc2c1[nH]c1ccc(Cl)c(Cl)c21 (stereo not shown); 9.6
CC1(CC(=O)O)OCCc2c1[nH]c1c(Cl)ccc(Cl)c21 (stereo not shown); 18
CC[C@@H](C)[C@@]1(CC(=O)O)OCCc2c1[nH]c1c(C)ccc(C#N)c21 (racemic); 4.9
CCCCC1(CC(=O)O)OCCc2c1[nH]c1c(C)ccc(C(F)(F)F)c21 (stereo not shown); 6.5
CCCC1(C(=O)O)OCCc2c1[nH]c1c(C)cc(F)c(C#N)c21 (stereo not shown); 2.8

Recorded IC50 of CCCC1(C(=O)O)OCCc2c1[nH]c1c(C)ccc(C#N)c21 (stereo not shown) , please.
5

Input CCCC1(CC(=O)O)OCCc2c1[nH]c1c(C)ccc(C(F)(F)F)c21 (stereo not shown)
1.5

Input CCC(C)C1(CC(=O)O)OCCc2c1[nH]c1c(C(N)=O)ccc(C(F)(F)F)c21 (stereo not shown)
23

Input CCCCC1(C(=O)O)OCCc2c1[nH]c1c(F)ccc(C#N)c21 (stereo not shown)
6.2

Input N#Cc1ccc(F)c2[nH]c3c(c12)CCOC3(CC(=O)O)C1CCC1 (stereo not shown)
9.6

Input CC[C@H](C)[C@@]1(CC(=O)O)OCCc2c1[nH]c1c(Cl)ccc(C#N)c21
0.19

Input CCCOc1cc(C#N)c2c3c([nH]c2c1C)C(CCC)(CC(=O)O)OCC3 (stereo not shown)
0.07

Input Cc1ccc(C#N)c2c3c([nH]c12)C(C(=O)O)(C1CCC1)OCC3 (stereo not shown)
3.9

Input CCCC1(CC(=O)O)OCCc2c1[nH]c1c(C)c(OCCC(C)(C)C)cc(C#N)c21 (stereo not shown)
0.55

Input CC[C@H](C)[C@@]1(CC(=O)O)OCCc2c1[nH]c1c(C)ccc(C#N)c21 (racemic) [Example 289]
0.23

Input O=C(O)CC1(CCC(F)(F)F)OCCc2c1[nH]c1ccc(Cl)c(Cl)c21 (stereo not shown)
5.4

Input CC[C@H](C)C1(CC(=O)O)OCCc2c1[nH]c1c(C)ccc([N+](=O)[O-])c21 (mixture of isomers)
0.25

Input Cc1ccc(C#N)c2c3c([nH]c12)C(CC(=O)O)(C1CCC1)OCC3 (stereo not shown)
2.3

Input O=C(O)CC1(C2CCCCC2)OCCc2c1[nH]c1c(Cl)ccc(Cl)c21 (stereo not shown)
15

Input COCCC1(CC(=O)O)OCCc2c1[nH]c1c(Cl)ccc(Cl)c21 (stereo not shown)
18

Input CCCC1(CC(=O)O)OCCc2c1[nH]c1c(C)c(C(=O)NC(C)C)cc(C#N)c21 (stereo not shown)
2.9

Input CCCC1(CC(=O)O)OCCc2c1[nH]c1c(C)c(C(=O)N(C)C)cc(C#N)c21 (stereo not shown)
20

Input C=CCCC1(CC(=O)O)OCCc2c1[nH]c1c(F)ccc(C#N)c21 (stereo not shown)
18

Input CCCC1(CC(=O)O)OCCc2c1[nH]c1c(Cl)ccc(C#N)c21 (stereo not shown)
0.6

###

target: NS5B from the BK strain (genotype 1b) (Hepatitis C virus genotype 1b); construct: NS5B from the BK strain (genotype 1b) is expressed in E. coli as a protein in which the 21 C-terminal amino acids are replaced; made in house; host or cells: E. coli; test: Hepatitis C polymerase inhibition, NS5B BK strain, 33P-GTP filter assay; format: biochemical; details: Table 1A; 20 μM compound; read-out: HCV pol % inh at 20 μM
experimental-readout: inhibition at 20 µM (%)
Answer with a number only, understood to be in %.

CCCCC1(CC(=O)O)OCCc2c1[nH]c1cccc(Br)c21 (stereo not drawn) [Example 68]; 61
CCC1(CC(=O)O)OCCc2c1[nH]c1c(Br)cccc21 (stereo not drawn) [Example 81]; 27
CC1(CC(=O)O)OCCc2c1[nH]c1c(Br)cccc21 (stereo not drawn) [Example 80]; 35
CCCC1(CC(=O)O)OCCc2c1[nH]c1cccc(-c3ccc(Br)cc3)c21 (stereo not drawn) [Example 41]; 13
C/C=C/CCC1(CC(=O)O)OCCc2c1[nH]c1c(Cl)ccc(Cl)c21 (stereo not drawn) [Example 50]; 34
CC(C)C1(CC(=O)O)OCCc2c1[nH]c1cccc(Cl)c21 (stereo not drawn) [Example 15]; 7

Recorded inhibition at 20 µM of Cc1ccc(F)c2c3c([nH]c12)C(CC(=O)O)(C(C)C)OCC3 (stereo not drawn) [Example 143] , please.
56

Input O=C(O)CC1(c2ccccc2F)OCCc2c1[nH]c1c(Cl)ccc(Cl)c21 (stereo not drawn) [Example 56]
3

Input CCCC1(CC(=O)O)OCCc2c1[nH]c1c(-c3ccc(C)cc3)cccc21 (stereo not drawn) [Example 90]
2

Input Cc1cc(Cl)c2[nH]c3c(c2c1C#N)CCOC3(CC(=O)O)c1ccccc1 (stereo not drawn) [Example 187]
61

Input O=C(O)CC1(c2ccoc2)OCCc2c1[nH]c1cccc(Br)c21 (stereo not drawn) [Example 25]
33

Input C/C=C/CCC1(CC(=O)O)OCCc2c1[nH]c1c(F)ccc(F)c21 (stereo not drawn) [Example 127]
24

Input CCCC1(CC(=O)O)OCCc2c1[nH]c1c(F)ccc(F)c21 (stereo not drawn) [Example 124]
61

###

compounds and their reported IC50
target: NS5B from the BK strain (genotype 1b) (Hepatitis C virus genotype 1b, UniProt P26663); construct: NS5B from the BK strain (genotype 1b) is expressed in E. coli as a protein in which the 21 C-terminal amino acids are replaced; made in house; host or cells: E. coli; experiment: Hepatitis C polymerase inhibition, NS5B BK strain, 33P-GTP filter assay; format: biochemical; conditions: Table 1A; NS5B BK strain; read-out: HCV pol BK IC50
Sequence (P26663 2420-2989): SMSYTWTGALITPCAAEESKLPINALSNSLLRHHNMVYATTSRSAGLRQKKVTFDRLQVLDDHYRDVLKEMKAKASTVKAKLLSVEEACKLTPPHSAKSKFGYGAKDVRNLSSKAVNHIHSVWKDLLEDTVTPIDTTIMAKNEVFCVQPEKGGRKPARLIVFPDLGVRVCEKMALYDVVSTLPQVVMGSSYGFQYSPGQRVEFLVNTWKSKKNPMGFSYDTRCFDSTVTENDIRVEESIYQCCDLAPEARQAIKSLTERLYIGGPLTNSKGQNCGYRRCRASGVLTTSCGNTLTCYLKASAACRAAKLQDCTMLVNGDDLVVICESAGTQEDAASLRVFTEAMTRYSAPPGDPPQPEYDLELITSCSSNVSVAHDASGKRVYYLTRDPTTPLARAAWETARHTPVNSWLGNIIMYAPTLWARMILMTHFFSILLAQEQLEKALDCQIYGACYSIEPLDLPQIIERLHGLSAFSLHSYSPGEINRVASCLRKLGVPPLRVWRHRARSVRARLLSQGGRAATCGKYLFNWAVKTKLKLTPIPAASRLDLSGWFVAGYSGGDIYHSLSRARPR

# count of solved cases: 4
COc1cc(C2(CC(=O)O)OCCc3c2[nH]c2c(Cl)ccc(Cl)c32)cc(OC)c1OC (centres unmarked); > 20 µM
O=C(O)CC1(c2ccccc2)OCCc2c1[nH]c1c(C(F)(F)F)cccc21 (centres unmarked); > 20 µM
N#Cc1c(F)cc(F)c2[nH]c3c(c12)CCOC3(CC(=O)O)c1ccoc1 (centres unmarked); > 5 µM
Cc1cc(Cl)c2[nH]c3c(c2c1Br)CCOC3(C)CC(=O)O (centres unmarked); > 5 µM

Now for another entry.
Recorded IC50 of Cc1cc(F)c2[nH]c3c(c2c1C#N)CCOC3(CC(=O)O)C(C)C (centres unmarked) , please.
> 5 µM

###

compounds and their reported IC50
target: NS5B from the BK strain (genotype 1b) (Hepatitis C virus genotype 1b); construct: NS5B from the BK strain (genotype 1b) is expressed in E. coli as a protein in which the 21 C-terminal amino acids are replaced; made in house; host or cells: E. coli; test: Hepatitis C polymerase inhibition, NS5B BK strain, 33P-GTP filter assay; assay type: biochemical; settings: Table 1A; NS5B BK strain; read-out: HCV pol BK IC50
Answer with a number only, understood to be in µM.

# count of solved cases: 3
CCCC1(CC(=O)O)OCCc2c1[nH]c1c(C(F)(F)F)cccc21 (stereo not drawn); 9.6
CCC1(CC(=O)O)OCCc2c1[nH]c1c(Br)ccc(Br)c21 (stereo not drawn); 0.43
CCCC1(CC(=O)O)OCCc2c1[nH]c1c(Cl)cccc21 (stereo not drawn); 17.9

Now for another entry.
Recorded IC50 of CCC[C@@]1(CC(=O)O)OCCc2c1[nH]c1c(C)ccc(C#N)c21 , please.
2.4

###

molecular target: NS5B from the BK strain (genotype 1b) (Hepatitis C virus genotype 1b, UniProt P26663); construct: NS5B from the BK strain (genotype 1b) is expressed in E. coli as a protein in which the 21 C-terminal amino acids are replaced; made in house; host or cells: E. coli; assay: Hepatitis C polymerase inhibition, NS5B BK strain, 33P-GTP filter assay; format: biochemical; settings: Table 1A; 20 μM compound; read-out: HCV pol % inh at 20 μM
experimental-readout: inhibition at 20 µM (%)
Answer with a number only, understood to be in %.

Recorded inhibition at 20 µM of CCCC1(CC(=O)O)OCCc2c1[nH]c1c(C(F)(F)F)cccc21 (stereo not drawn) , please.
39

Input Cc1cc(Cl)c2[nH]c3c(c2c1Br)CCOC3(CC(=O)O)c1ccccc1 (stereo not drawn)
15

Input CCCC1(CC(=O)O)OCCc2c1[nH]c1c(F)ccc(I)c21 (stereo not drawn)
86

Input O=C(O)CC1(c2ccccc2)OCCc2c1[nH]c1c(Cl)ccc(Cl)c21 (stereo not drawn)
11

Input Cc1cc(F)c2[nH]c3c(c2c1C#N)CCOC3(CC(=O)O)c1ccccc1 (stereo not drawn)
3

Data origin: patent US7217730B2
